Biological target: hAT1R (Homo sapiens)
Sequence (P30556 whole entry): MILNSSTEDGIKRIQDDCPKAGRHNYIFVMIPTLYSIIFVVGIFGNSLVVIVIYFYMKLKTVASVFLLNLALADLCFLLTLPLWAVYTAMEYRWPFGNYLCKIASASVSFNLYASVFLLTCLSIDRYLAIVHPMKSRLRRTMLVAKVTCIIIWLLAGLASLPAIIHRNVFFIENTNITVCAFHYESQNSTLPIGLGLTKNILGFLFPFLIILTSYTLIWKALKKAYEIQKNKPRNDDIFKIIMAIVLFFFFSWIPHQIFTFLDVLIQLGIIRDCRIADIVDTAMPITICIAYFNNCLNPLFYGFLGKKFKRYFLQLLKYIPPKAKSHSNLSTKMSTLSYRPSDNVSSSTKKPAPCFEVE
Assay: cell-based
Settings: agonist mode
Measured BRET P63 Ymax, listed per entry.
Reply numerically in %, unit not repeated.

Known BRET P63 Ymax results, listed for orientation:
# Chem smiles, Unit abbrev, BRET P63 Ymax
records = [
    ("CC1=NC2(CCCC2)C(=O)N1Cc1ccc(-c2cc(-c3cc(C)ccn3)ccc2-c2nn[nH]n2)cc1", "%", 24.1),
    ("CCc1nc2c(C)cc(C)nc2n1Cc1ccc(-c2cc(-c3cc(C)cc(C)c3)ccc2C(=O)O)cc1", "%", 16.1),
    ("CCc1nc2c(C)cc(C)nc2n1Cc1ccc(-c2cc(Oc3cccnc3)ccc2-c2nnn[nH]2)cc1", "%", 10.8),
    ("CCc1nc2c(C)cc(C)nc2n1Cc1ccc(-c2cc(-c3ccccc3)ccc2-c2nnn[nH]2)cn1", "%", 11.6),
    ("CCOc1nc2cccc(C(=O)O)c2n1Cc1ccc(-c2cc(-c3cnn(C(F)F)c3)ccc2-c2nn[nH]n2)cc1", "%", 10.8),
]

Next molecule, BRET P63 Ymax to be filled in.
Record request: BRET P63 Ymax value, item `CCCCC1=NC2(CCCC2)C(=O)N1Cc1ccc(-c2cc(-c3cc(C)ccn3)ccc2-c2nn[nH]n2)cc1`
20.6
